Origin of measurements: paper PMC11258331

Assay: Plasma pharmacokinetics (LC-MS/MS, noncompartmental; GMR by linear mixed-effects model)
Settings: human, plasma, oral, AUC(TAU), geometric mean [n] (90% CI), Day 5; plasma; Treatment D (milvexian alone), Part 2
Quantity Name: AUC (ng·h/mL)
One number for each entry, in ng·h/mL.

Ask: For the compound C[C@@H]1CCC[C@H](n2cnc(-c3cc(Cl)ccc3-n3cc(Cl)nn3)cc2=O)c2cc(ccn2)-c2c(cnn2C(F)F)NC1=O [Milvexian] , what AUC is on record?
Reply: 22000

----------
Assay: Plasma pharmacokinetics (LC-MS/MS, noncompartmental; GMR by linear mixed-effects model)
Conditions: human, plasma, oral, Tmax, median (range), Day 1; plasma; Treatment I (milvexian + aspirin), Part 3
Quantity Name: Tmax (h)
Give bare numbers, in h.

Ask: For the compound O=C(O)c1ccccc1O , what Tmax is on record?
Reply: 2

Shifting focus to the compound that follows.
Ask: For the compound CC(=O)Oc1ccccc1C(=O)O [Aspirin, acetylsalicylic acid, reference compound] , what Tmax is on record?
Reply: 0.5

----------
Assay: Plasma pharmacokinetics (LC-MS/MS, noncompartmental; GMR by linear mixed-effects model);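 note: participants at one US clinical research site, randomized 1:1:1 to a single study part, with 90% CIs from a mixed-effects model on log-transformed PK parameters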
Conditions: human, plasma, oral, Tmax, median [n] (range), Day 5; plasma; Treatment C (placebo + aspirin + clopidogrel), Part 1
Quantity Name: Tmax (min)
One number for each entry, in min.

Give Tmax for each listed item.
1. COC(=O)[C@H](c1ccccc1Cl)N1CCc2sccc2C1
2. O=C(O)c1ccccc1O
3. CC(=O)Oc1ccccc1C(=O)O [Aspirin, acetylsalicylic acid, reference compound]

Reply:
1: 30; 2: 121; 3: 30
